measured.target: KPR (ketopantoate reductase) (Staphylococcus aureus, UniProt A0A0J9X283)
Sequence (A0A0J9X283 1-286): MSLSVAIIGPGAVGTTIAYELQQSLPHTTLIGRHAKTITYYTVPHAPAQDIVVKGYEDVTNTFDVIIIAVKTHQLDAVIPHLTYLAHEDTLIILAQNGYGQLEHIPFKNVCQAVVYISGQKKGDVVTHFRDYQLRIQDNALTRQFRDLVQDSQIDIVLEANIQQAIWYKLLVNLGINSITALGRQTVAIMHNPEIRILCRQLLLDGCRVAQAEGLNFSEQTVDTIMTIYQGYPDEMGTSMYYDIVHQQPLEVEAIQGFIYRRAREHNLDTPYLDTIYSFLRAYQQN
protocol: FRET titration, Trp167 to bound NADPH
Assay type: binding

compound: NC(=O)C1=CN([C@@H]2O[C@H](COP(=O)(O)OP(=O)(O)OC[C@H]3O[C@@H](n4cnc5c(N)ncnc54)[C@H](OP(=O)(O)O)[C@@H]3O)[C@@H](O)[C@H]2O)C=CC1 [NADPH]
Kd [nM]: 58
